- Tested on: NCI/ADR-RES ovarian
- Procedure Text: NCI tumour cell line growth inhibition, 48 h
Let's look at some compounds and their measured GI50.
Measure Name: GI50

[
  {
    "Compound Structure String": "O=C(CSc1nc2ccc([N+](=O)[O-])cc2[nH]1)Nc1ccc([N+](=O)[O-])cc1",
    "Measure Name": "GI50",
    "Recorded Measurement": "2.46 µM"
  },
  {
    "Compound Structure String": "CC(=O)NS(=O)(=O)c1ccc(-n2nc(-c3ccccc3)cc2-c2cc(O)ccc2O)cc1",
    "Measure Name": "GI50",
    "Recorded Measurement": "> 100 µM"
  },
  {
    "Compound Structure String": "NNC(=S)N/N=C/c1ccccn1",
    "Measure Name": "GI50",
    "Recorded Measurement": "2.81 µM"
  },
  {
    "Compound Structure String": "CC[n+]1c(/C=C/c2ccc(N3CCCC3)cc2)cccc1/C=C/c1ccc(N2CCCC2)cc1",
    "Measure Name": "GI50",
    "Recorded Measurement": "0.466 µM"
  },
  {
    "Compound Structure String": "ClCCN(CCCl)c1ccc(OCc2ccccc2)cc1",
    "Measure Name": "GI50",
    "Recorded Measurement": "5.44 µM"
  },
  {
    "Compound Structure String": "O=C(NC(=S)Nc1ccc(-c2nc3ccccc3[nH]2)cc1)c1ccc2ccccc2c1",
    "Measure Name": "GI50",
    "Recorded Measurement": "4.52 µM"
  },
  {
    "Compound Structure String": "CSc1nc(SC)c2cnn(-c3ccnc4cc(Cl)ccc34)c2n1",
    "Measure Name": "GI50",
    "Recorded Measurement": "51.2 µM"
  },
  {
    "Compound Structure String": "COc1ccc(-c2nc(Nc3ccc(F)cc3)nc(Nc3ccc4c(c3)nc(C)n4Cc3ccccc3)n2)cc1",
    "Measure Name": "GI50",
    "Recorded Measurement": "3.23 µM"
  },
  {
    "Compound Structure String": "COc1c(O)cc2c(c1CC=C(C)C)OC(=O)c1c(cc(O)c(CC=C(C)C)c1O)O2",
    "Measure Name": "GI50",
    "Recorded Measurement": "4.03 µM"
  },
  {
    "Compound Structure String": "Cc1cn2c(/C=N/NC3=NCCN3)c(-c3ccc(Cl)c([N+](=O)[O-])c3)nc2s1",
    "Measure Name": "GI50",
    "Recorded Measurement": "7.75 µM"
  },
  {
    "Compound Structure String": "Clc1ccc(Nc2ncnc3ccccc23)cc1",
    "Measure Name": "GI50",
    "Recorded Measurement": "53.7 µM"
  }
]
